Attribution: patent US20260242485A1

target: T1, human CD16A-158V expressed on CHO-K1 cells (human, UniProt P08637 17-254); test: flow cytometry, CHO-K1-hCD16A-158V cells, geometric mean
T1 construct: whole, on cells; also called hCD16A-158V; CHO-K1-hCD16A-158V
T1 sequence (P08637 17-254 F176V): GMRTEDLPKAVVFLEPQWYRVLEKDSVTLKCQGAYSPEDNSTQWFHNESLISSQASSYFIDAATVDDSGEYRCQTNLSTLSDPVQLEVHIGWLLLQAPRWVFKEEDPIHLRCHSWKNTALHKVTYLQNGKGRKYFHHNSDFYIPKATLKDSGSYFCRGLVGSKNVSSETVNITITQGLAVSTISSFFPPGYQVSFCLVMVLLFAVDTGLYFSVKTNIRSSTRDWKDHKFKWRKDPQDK
Reported endpoint: EC50 (read off the curve)

Q: For the binder 45H6E8-z20 (antibody, human IgG1, V domains shown, Human IgG1 LALAPG constant region; also called HU-VH1-7 / HU-VL1-3) VH: QVQLVQSGAEVKKPGASVKVSCKVSGYTLTDYYMQWVRQAPGKGLEWMGWIDPENGDTEYAPKFQGRATMTADTSTDTAYMELSSLRSEDTAVYYCTTGGNYVDWGQGTTVTVSS VL: DIQMTQSPSFLSASVGDRVTITCKASQNVGTAVAWYQQKPGKAPKLLIYSASNRYTGVPDRFSGSGSGTDFTLTISSLQPEDFATYFCQQYSSYPLLTFGQGTRLEIK , give its reported EC50 (read off the curve).
Result: ~0.4 nM
